Data credit: patent US20210206877A1

SUBJECT OF TEST: murine BACE1 ECD
Sequence (single chain, as listed by the source limits assumed): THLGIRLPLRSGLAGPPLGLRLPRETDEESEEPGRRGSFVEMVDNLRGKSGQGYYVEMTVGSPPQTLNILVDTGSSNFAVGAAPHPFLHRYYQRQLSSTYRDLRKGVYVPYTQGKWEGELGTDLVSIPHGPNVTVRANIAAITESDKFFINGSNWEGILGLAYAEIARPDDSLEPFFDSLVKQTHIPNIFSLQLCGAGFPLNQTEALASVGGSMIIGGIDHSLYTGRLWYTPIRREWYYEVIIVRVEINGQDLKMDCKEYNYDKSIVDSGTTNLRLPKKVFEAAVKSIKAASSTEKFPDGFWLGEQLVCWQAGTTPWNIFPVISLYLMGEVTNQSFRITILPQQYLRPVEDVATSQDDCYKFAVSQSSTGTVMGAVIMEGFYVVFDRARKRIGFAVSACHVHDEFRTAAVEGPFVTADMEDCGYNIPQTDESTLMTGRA
ASSAY NAME: cell-based or functional assay; note: test concentration or dose not given here
PROPERTY MEASURED: % inhibition, FRET short substrate assay (negative = activation) (%)
Output spec: scalar in %, unitless text.

Input line: Using the record for 5896 (antibody, V domains shown) VH: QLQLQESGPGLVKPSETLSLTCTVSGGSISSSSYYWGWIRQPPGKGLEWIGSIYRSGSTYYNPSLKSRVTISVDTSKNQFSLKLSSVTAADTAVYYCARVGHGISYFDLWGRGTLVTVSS VL: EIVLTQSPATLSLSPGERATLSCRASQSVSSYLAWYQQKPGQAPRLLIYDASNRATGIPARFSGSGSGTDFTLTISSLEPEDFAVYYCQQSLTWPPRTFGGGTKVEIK , report its % inhibition, FRET short substrate assay (negative = activation).
Output line: -3
